Test system: Protein cereblon/Androgen receptor (Homo sapiens), P10275+Q96SW2 [UNDEFINED MUTATION]
Sequence (P10275 whole entry, looked up, change not shown, canonical isoform): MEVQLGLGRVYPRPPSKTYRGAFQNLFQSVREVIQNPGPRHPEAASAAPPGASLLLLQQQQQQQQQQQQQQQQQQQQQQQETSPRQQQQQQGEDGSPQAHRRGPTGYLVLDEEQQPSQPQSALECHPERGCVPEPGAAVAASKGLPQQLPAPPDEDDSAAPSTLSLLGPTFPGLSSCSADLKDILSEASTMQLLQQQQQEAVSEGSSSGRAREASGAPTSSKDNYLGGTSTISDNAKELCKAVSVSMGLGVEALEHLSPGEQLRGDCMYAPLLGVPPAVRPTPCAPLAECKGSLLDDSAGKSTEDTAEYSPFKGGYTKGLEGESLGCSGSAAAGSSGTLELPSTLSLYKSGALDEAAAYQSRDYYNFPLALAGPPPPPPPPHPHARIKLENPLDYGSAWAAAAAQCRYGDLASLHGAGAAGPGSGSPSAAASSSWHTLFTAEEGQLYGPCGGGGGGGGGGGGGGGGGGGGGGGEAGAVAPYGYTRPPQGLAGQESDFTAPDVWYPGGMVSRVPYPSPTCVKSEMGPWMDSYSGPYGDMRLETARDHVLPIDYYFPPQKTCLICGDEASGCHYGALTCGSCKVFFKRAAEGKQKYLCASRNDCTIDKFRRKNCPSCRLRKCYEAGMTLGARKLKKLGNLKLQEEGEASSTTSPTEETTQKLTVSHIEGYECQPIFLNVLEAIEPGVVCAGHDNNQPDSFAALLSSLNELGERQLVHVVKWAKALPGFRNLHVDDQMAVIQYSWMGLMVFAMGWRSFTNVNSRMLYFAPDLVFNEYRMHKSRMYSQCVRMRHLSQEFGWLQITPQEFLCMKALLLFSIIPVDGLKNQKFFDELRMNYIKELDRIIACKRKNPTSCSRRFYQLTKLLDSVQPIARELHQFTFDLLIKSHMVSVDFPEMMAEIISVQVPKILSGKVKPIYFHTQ
Sequence (Q96SW2 whole entry, looked up, change not shown, canonical isoform): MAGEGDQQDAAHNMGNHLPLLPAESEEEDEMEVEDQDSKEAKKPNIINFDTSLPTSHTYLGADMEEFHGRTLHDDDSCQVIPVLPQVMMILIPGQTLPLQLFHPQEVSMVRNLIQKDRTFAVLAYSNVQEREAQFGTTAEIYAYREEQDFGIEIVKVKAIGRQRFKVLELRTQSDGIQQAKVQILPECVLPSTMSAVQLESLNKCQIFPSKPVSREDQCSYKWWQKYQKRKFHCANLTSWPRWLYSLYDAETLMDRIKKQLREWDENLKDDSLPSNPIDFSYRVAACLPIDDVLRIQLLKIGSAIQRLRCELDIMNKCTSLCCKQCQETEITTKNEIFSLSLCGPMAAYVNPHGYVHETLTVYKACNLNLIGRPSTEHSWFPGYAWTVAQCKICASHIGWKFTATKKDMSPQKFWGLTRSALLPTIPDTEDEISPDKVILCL
Experiment: PROTAC activity at CRBN/Androgen receptor splice variant 7 in human VCaP cells assessed as induction of AR-V7 degradation at 0.1 uM incubated for 24 hrs by Western blot analysis relative to control
Assay type: cell-based
OBSERVABLE: Activity (%)

>>> test_value("CC1(COc2ccc(C(C)(C)c3cc(Cl)c(OCC4CCN(C(=O)CCCCCNc5ccc6c(c5)C(=O)N(C5CCC(=O)NC5=O)C6=O)CC4)c(C#N)c3)cc2)COC1 (stereo not given)")
29.8
>>> test_value("CC(C)(c1ccc(OCC2CCN(C(=O)CCCCCNc3ccc4c(c3)C(=O)N(C3CCC(=O)NC3=O)C4=O)CC2)cc1)c1ccc(OC[C@H](O)CCl)cc1 (stereo not given in full)")
80.7
>>> test_value("CC(C)(c1ccc(OCc2ccncn2)cc1)c1cc(Cl)c(OCC2CCN(C(=O)CCCCCNc3ccc4c(c3)C(=O)N(C3CCC(=O)NC3=O)C4=O)CC2)c(C#N)c1 (stereo not given)")
84.5
>>> test_value("CC(C)(c1ccc(OCC2CCOC2)cc1)c1cc(Cl)c(OCC2CCN(C(=O)CCCCCNc3ccc4c(c3)C(=O)N(C3CCC(=O)NC3=O)C4=O)CC2)c(C#N)c1 (stereo not given)")
40.1

Where do the numbers come from? From ChEMBL document CHEMBL6177998.
